Listed here are binders together with their documented kon.
- system: T1, StrepII-tagged ROR1-extracellular domain (human) (human, UniProt Q01973 30-406)
- T1 construct: extracellular domain; also called ROR1-strep; soluble ROR1-strep
- T1 sequence (Q01973 other isoform, or with tags, fused parts or gaps): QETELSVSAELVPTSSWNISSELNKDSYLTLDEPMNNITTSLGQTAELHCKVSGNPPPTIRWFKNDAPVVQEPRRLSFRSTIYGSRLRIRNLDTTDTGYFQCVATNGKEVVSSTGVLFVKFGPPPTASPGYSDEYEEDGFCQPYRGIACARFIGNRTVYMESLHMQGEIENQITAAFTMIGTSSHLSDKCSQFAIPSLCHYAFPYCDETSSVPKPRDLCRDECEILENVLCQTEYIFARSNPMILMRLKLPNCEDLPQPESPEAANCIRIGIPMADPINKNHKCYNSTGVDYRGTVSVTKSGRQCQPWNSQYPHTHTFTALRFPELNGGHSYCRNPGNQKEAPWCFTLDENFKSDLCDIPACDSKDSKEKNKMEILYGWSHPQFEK
- procedure text: SPR (Biacore T200), IgG from HEK293T supernatant captured by anti-human Fc, ROR1-strep 2.5-20 nM as analyte, 1:1 model, 25 C
Give just the numeric value; M⁻¹ s⁻¹ need not be written.

Item under review: Chimeric mAb R12 (rabbit variable regions, human IgG1/lambda constant regions) (antibody, V domains shown, Full-length IgG1 with human gamma 1 and lambda constant regions; also called parental mAb R12) VH: QEQLVESGGRLVTPGGSLTLSCKASGFDFSAYYMSWVRQAPGKGLEWIATIYPSSGKTYYATWVNGRFTISSDNAQNTVDLQMNSLTAADRATYFCARDSYADDGALFNIWGPGTLVTISS VL: ELVLTQSPSVSAALGSPAKITCTLSSAHKTDTIDWYQQLQGEAPRYLMQVQSDGSYTKRPGVPDRFSGSSSGADRYLIIPSVQADDEADYYCGADYIGGYVFGGGTQLTVT . Reported kon?
349000

I am curious: what kon value has been reported for huR12_7, humanized from R12 (antibody, human IgG1, V domains shown, Human IgG1 with lambda light chain) VH: QVQLVESGGELVQPGGSLTLSCKASGFDFSAYYMSWVRQAPGKGLEWIATIYPSSGKTYYAASVQGRFTISADNAKNTVSLQMNSLTAADTATYFCARDSYADDGALFNIWGKGTLVTVSS VL: QLVLTQSPSVSAALGSSAKITCTLSSAHKTDTIDWYQQLAGQAPRYLMYVQSDGSYEKRSGVPDRFSGSSSGADRYLIISSVQADDEADYYCGADYIGGYVFGGGTQLTVLG ?
1.05e+06

Proceed to the following item.
Any idea what its kon is? The binder is huR12_4, humanized from R12 (antibody, human IgG1, V domains shown, Human IgG1 with lambda light chain) VH: QVQLVESGGELVQPGGSLTLSCKASGFDFSAYYMSWVRQAPGKGLEWIATIYPSSGKTYYAASVQGRFTISADNAKNTVYLQMNSLTAADTATYFCARDSYADDGALFNIWGKGTLVTVSS VL: QLVLTQSPSVSAALGSSAKITCTLSSAHKTDTIDWYQQLAGQAPRYLMYVQSDGSYEKRSGVPDRFSGSASGADRYLAISRVQADDEADYYCGADYIGGYVFGGGTQLTVLG
1.09e+06
